- assayedTarget: T1, Monomeric 8-histidine tagged human EGFRvIII extracellular domain (human, UniProt P00533 298-645)
- T1 construct: Analyte in all SPR assays; not shown: 8-histidine tag
- measurementDescription: SPR, scFv-Fc captured by anti-human Fc, 37 C
measurementType: kon (M⁻¹ s⁻¹)
Enter your answer as a number in M⁻¹ s⁻¹; do not include the unit.

# binder, kon / M⁻¹ s⁻¹
records = [
    ("42G9.HL scFv-Fc protein (Fc fusion, HL: heavy-chain variable domain at the N-terminus; not shown: human IgG1 Fc moiety) QVTLKESGPVLLKPTETLTLTCTVSGFSLSNPRMGVSWIRQPPGKALEWFAHIFSTDEKSLKLSLRSRLTLSKDTSKSQVVLTMTNMAPVDSATYYCARDSSNYEGYFDFWGQGTLVTVSSGGGGSGGGGSGGGGSGGGGSEVVLTQSPATLSVSPGERATLSCRASQSVRSNLAWYQQKSGQAPRLLIYGSTIRATGVPARFSGSGSGTEFTLTISSLQSEDFAVYYCQQYSDWPFTFGPGTKVDIK", 56000),
    ("20B9.LH scFv-Fc protein (Fc fusion, LH: light-chain variable domain at the N-terminus; not shown: human IgG1 Fc moiety) EIVMTQSPATLSVSPGERATLSCRVSQSIGANLAWYQQKFGQAPRLLIYGASTRATGIPVRFSGGGSGTEFTLTISSLQSEDFAIYSCQQYIYWPFTFGPGTTVDIKGGGGSGGGGSGGGGSGGGGSQVTLKESGPVLVKPTETLTLTCTVSGFSLSNARMGVSWIRQPPGKALEWLGHIFSTDEKSYSTSLRGRITISKDTSRGLVVLTLTNMDPVDTATYYCARDSSNYEGYFDFWGPGFLVTVSS", 30000),
    ("h62G7-L6/EQ scFv-Fc protein (Fc fusion, not shown: human IgG1 Fc moiety) DVVMTQSPLSLPVTLGQPASISCKSSQSLLYSNGKTYLNWFQQRPGQSPRRLIYQVSKLDSGVPDRFSGSGSGTDFTLKISRVEAEDVGVYYCGQDTHFPLTFGGGTKVEIKGGGGSGGGGSGGGGSGGGGSQVQLVQSGAEVKKPGASVKVSCKASGYTFTDYTLHWVRQAPGQGLEWMGGIWPITGGTTYNQKFKGRVTMTRDTSTSTVYMELSSLRSEDTAVYYCARGEAQGSWGQGTLVTVSS", 750000),
    ("C6.HL scFv-Fc protein (Fc fusion, HL: heavy-chain variable domain at the N-terminus; not shown: human IgG1 Fc moiety) QVQLVQSGAEVKKPGSSVKVSCKASGDTFSSNAISWVRQAPGQGLEWMGVIIPIFGTADYAQKFQGRVTITADESTSTAYMELSSLRSEDTAVYYCARHTYHEYAGGYYGGAMDPWGQGTLVTVSSGGGGSGGGGSGGGGSGGGGSELQSVLTQPPSASGTPGQRVTISCSGSSSNIGSNYVYWYQQLPGTAPKILIYRNNQRPSGVPDRFSGSKSGTSASLAISGLRSEDEADYYCAAWDDNLSGWVFGTGTKLTVL", 19000),
]

Any idea what kon was measured for 20B9.HL scFv-Fc protein (Fc fusion, HL: heavy-chain variable domain at the N-terminus; not shown: human IgG1 Fc moiety) QVTLKESGPVLVKPTETLTLTCTVSGFSLSNARMGVSWIRQPPGKALEWLGHIFSTDEKSYSTSLRGRITISKDTSRGLVVLTLTNMDPVDTATYYCARDSSNYEGYFDFWGPGFLVTVSSGGGGSGGGGSGGGGSGGGGSEIVMTQSPATLSVSPGERATLSCRVSQSIGANLAWYQQKFGQAPRLLIYGASTRATGIPVRFSGGGSGTEFTLTISSLQSEDFAIYSCQQYIYWPFTFGPGTTVDIK ? 24000

Origin of values: patent US20190144550A1
